Sourced from patent US20210277003A1

Please go through the items and note down their log10 of IC50.
Target: recombinant human Meningioma Expressed Antigen 5 (MGEA5), also referred to as O-GlcNAcase (OGA) (Homo sapiens, UniProt O60502)
Construct: Full length OGA enzyme was purchased at OnGene (cat #TP322411); purchased OnGene (so in the source)
Sequence (O60502 1-916): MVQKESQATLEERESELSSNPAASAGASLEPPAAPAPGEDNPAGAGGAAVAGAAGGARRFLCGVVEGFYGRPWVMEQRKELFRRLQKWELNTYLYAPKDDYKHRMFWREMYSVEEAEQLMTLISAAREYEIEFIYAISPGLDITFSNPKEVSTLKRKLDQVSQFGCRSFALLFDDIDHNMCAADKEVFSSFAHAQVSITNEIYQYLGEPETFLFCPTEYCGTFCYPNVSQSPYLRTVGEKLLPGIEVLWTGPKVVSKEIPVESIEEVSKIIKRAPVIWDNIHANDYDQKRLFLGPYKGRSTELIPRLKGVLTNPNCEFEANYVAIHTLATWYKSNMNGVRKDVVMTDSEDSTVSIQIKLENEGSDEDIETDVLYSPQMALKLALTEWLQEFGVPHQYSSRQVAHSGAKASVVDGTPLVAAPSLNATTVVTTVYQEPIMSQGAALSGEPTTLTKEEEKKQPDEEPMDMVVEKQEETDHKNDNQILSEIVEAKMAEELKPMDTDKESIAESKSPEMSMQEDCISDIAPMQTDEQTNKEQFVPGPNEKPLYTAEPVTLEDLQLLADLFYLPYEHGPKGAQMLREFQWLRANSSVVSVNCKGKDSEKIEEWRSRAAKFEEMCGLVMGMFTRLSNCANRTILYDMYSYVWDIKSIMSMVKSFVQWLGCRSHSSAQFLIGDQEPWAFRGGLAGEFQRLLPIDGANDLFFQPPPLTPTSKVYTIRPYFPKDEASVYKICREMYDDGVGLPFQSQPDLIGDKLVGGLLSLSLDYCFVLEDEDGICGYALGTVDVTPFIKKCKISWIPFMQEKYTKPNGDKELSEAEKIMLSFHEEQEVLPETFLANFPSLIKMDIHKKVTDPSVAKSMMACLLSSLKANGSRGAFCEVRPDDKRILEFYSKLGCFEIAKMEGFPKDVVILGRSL
Test: OGA biochemical assay: inhibition of hydrolysis of fluorescein mono-ß-D-N-Acetyl-Glucosamine (FM-GlcNAc), fluorescence readout
Conditions: FM-GlcNAc substrate, read-out: Enzymatic hOGA, pIC50 (converted)
Reminder: these figures are log10 of reported IC50, in µM before transformation.

Answered cases to consult:
CCCCn1ccc2c(Nc3c(C)ccc(C(=O)N(C)C)c3C)nccc21 [Compound 59]
-2.36
COCCn1ccc2c(Nc3c(Cl)cccc3Cl)nccc21 [Compound 40]
-1.09
CCCCn1ccc2c(Nc3c(C)cc4c(cnn4C)c3C)nccc21 [Compound 87]
-2.32
CCCCn1ccc2c(Nc3c(F)cncc3C(C)C)nccc21 [Compound 46]
-1.75
Cc1ncnc(C(C)C)c1Nc1nccc2c1ccn2CCC(F)(F)F [Compound 192]
-0.74
Fc1cnc(-n2ccc3c(Nc4c(Cl)cccc4Cl)nccc32)nc1 [Compound 164]
-1.43

Items follow; give log10 of IC50 for each.
1. CCC(F)(F)Cn1ccc2c(Nc3c(C)ccnc3C)nccc21 [Compound 27]
2. Cc1cncc(Cl)c1Nc1nccc2c1ccn2CCC1CC1 [Compound 65]

[A]
1. -2.65
2. -2.27

Dear colleague, could you send me log10 of IC50 for each of the items below? Thanks.
1. CCCCn1ccc2c(Nc3c(C)ccc4c3nc(C)n4C)nccc21 [Compound 206]
2. CCCCn1c(F)cc2c(Nc3c(C)cncc3C)nccc21 [Compound 31]
3. CCCCn1ccc2c(Nc3c(C)cc(C(=O)N4CCOCC4)cc3C)nccc21 [Compound 56]
4. Cc1ccnc(C)c1Nc1nccc2c1ccn2CCC(C)C [Compound 47]
5. Cc1ccnc(C)c1Nc1nccc2c1ccn2CC(F)(F)F [Compound 79]

[A]
1. -1.29
2. -0.52
3. -2.57
4. -1.93
5. -0.86
